Where do the numbers come from? From ChEMBL document CHEMBL1201862.

System: MDA-MB-435
Assay: NCI tumour cell line growth inhibition, 48 h
Calls of active or inactive are those of the source. Rule as the data show it: active = GI50 up to about 1.1 µM and inactive = higher.
Lab note: assign the record to one of 1 (active), -1 (inactive)

Example cases with answers are listed next.
INSERT INTO assay_data (compound, qualitative_label) VALUES
  ('O=c1[nH]c2ccsc2c(=O)n1COCc1ccccc1', -1),
  ('N/C(=N\c1cccc(Cl)c1)c1ccccc1N', -1),
  ('C/C(=C\COc1ccc2ccc(=O)oc2c1)CCC(=O)C(C)(C)O', -1),
  ('CCOC(=O)c1cc2c([nH]1)c(O)cc1c2ccn1Cc1ccccc1', -1),
  ('C/C(Cl)=N\OC(=O)Nc1ccc([N+](=O)[O-])cc1', -1),
  ('C[C@]12CC[C@H]3[C@@H](CC[C@]4(O)C[C@@H](O)CC[C@]34/C=N/O)[C@@]1(O)CC[C@@H]2C1=COC(=O)C1', 1),
  ('CCOc1ccc(C(=O)/C=C2/Nc3ccccc3N/C2=C/C(=O)c2ccc(OCC)cc2)cc1', -1),
  ('COC1CC(OC2C(C)OC(OC3C(C)OC(OC4C(O)CC(O[C@H]5CC[C@@]6(C)C(=CC[C@]7(O)[C@@H]6C[C@@H](OC(=O)/C=C/c6ccccc6)[C@@]6(C)[C@]7(O)CC[C@@]6(O)C(C)=O)C5)OC4C)CC3OC)CC2OC)OC(C)C1O (stereo not given in full)', -1),
  ('CCOC(=O)N(C)C(=C(F)F)C(F)(F)F', -1),
  ('Cc1ccc(C(=O)Nc2ccc(S(=O)(=O)O)c3cc(S(=O)(=O)O)cc(S(=O)(=O)O)c23)cc1NC(=O)Nc1cc(C(=O)Nc2ccc(S(=O)(=O)O)c3cc(S(=O)(=O)O)cc(S(=O)(=O)O)c23)ccc1C', -1);

Qu. Short answer needed: outcome of this test for `CN(C)/C=C/c1nnc([N+](=O)[O-])s1` ?
Ans. -1

Qu. Short answer needed: outcome of this test for COC(=O)C1Cc2cc3c(cc2C1=O)CCC3 (stereo not given) ?
Ans. -1

Qu. Short answer needed: outcome of this test for `O=C(NCCCCCCNCc1cccc2ccccc12)Nc1cccc2ccccc12` ?
Ans. -1

Qu. Short answer needed: outcome of this test for `C=C1c2nc3ccccc3n2C=C(c2ccc(OC)cc2)N1c1ccc(OCCN2CCCCC2)cc1` ?
Ans. -1

Qu. Short answer needed: outcome of this test for `CCCNC(=O)c1cc(OC)c(OC)cc1NC(=O)C12CC3CC(CC(C3)C1)C2` ?
Ans. -1

Qu. Short answer needed: outcome of this test for `COc1cc(C[C@@]2(C)[C@@H]3CCC[C@H](CO)[C@@]3(C)CC[C@@H]2C)c(Cl)c(OC)c1` ?
Ans. -1

Qu. Short answer needed: outcome of this test for `COc1cc2c(c(OC)c1OC)-c1ccc(SC)cc1C(=O)CC2` ?
Ans. 1

Qu. Short answer needed: outcome of this test for OC1(c2ccccc2)CSC2=Nc3ccccc3C3CCN1N23 (stereo not given) ?
Ans. -1

Qu. Short answer needed: outcome of this test for C=C1C(=O)OC2C1C(OC(=O)/C(C)=C/C)CC(O)(CCl)C1C(O)C3OC3(C)C21O (stereo not given) ?
Ans. -1

Qu. Short answer needed: outcome of this test for `Nc1ncnc2c1ccn2COC(CO)CO` ?
Ans. -1

---

Test system: MDA-MB-231
Assay: NCI tumour cell line growth inhibition, 48 h
Calls of active or inactive are those of the source. No stated cut-off is given here; in the data, active = GI50 up to about 1.1 µM and inactive = higher.
Lab note: assign the record to one of yes (1) = active, no (0) = inactive

INSERT INTO results (compound, qualitative_label) VALUES
  ('OC(CCN1CCN(CCOC(c2ccccc2)c2ccccc2)CC1)c1ccccc1 (configuration not stated)', 'no (0)'),
  ('N#C/C(=C\c1ccc([N+](=O)[O-])o1)c1n[nH]c(Cc2ccccc2)n1', 'no (0)'),
  ('O=C(NCCCCCCNCc1cccc2ccccc12)Nc1cccc2ccccc12', 'no (0)');

Qu. Short answer needed: outcome of this test for C=C1C(C[C@@H]2O[C@H]3C[C@H]4O[C@@]5(C[C@@H]6O[C@]7(C[C@H](C)[C@@H]8O[C@@H]9CC(C(O)CO)O[C@@H]9C[C@@H]8O7)C[C@H](C)[C@@H]6O5)C[C@H]4O[C@H]3[C@H](C)[C@H]2O)O[C@@H](CC[C@@H]2O[C@@H](CC[C@@]34CC5O[C@H]6C(O[C@H]7CC[C@H](CC(=O)OC)O[C@@H]7[C@@H]6O3)[C@H]5O4)CC2=C)C[C@H]1C (some centres not stated) ?
Ans. yes (1)

Qu. Short answer needed: outcome of this test for CCc1cc2c(c3c1CCCC3)CC1(Cc3ccc(C(=O)OC)cc3C1)C2 (configuration not stated) ?
Ans. no (0)

Qu. Short answer needed: outcome of this test for `COc1cccc(-c2nc(-c3cnccn3)n(COCCO)n2)c1` ?
Ans. no (0)

Qu. Short answer needed: outcome of this test for COC(=O)CC1CN(C(=O)OCc2ccccc2)C(C)(C)O1 (configuration not stated) ?
Ans. no (0)

---

Test system: XF498
Assay: NCI tumour cell line growth inhibition, 48 h
Calls of active or inactive are those of the source. Rule as the data show it: active = GI50 up to about 1.1 µM and inactive = higher.
Entries and their measured GI50 follow.

INSERT INTO results (compound, property_label, result) VALUES
  ('COC(=O)C1=Cc2cc3c(cc2[C@H](c2ccc4c(c2)OCO4)C1C(=O)OC)OCO3 (stereo not given in full)', 'GI50', '> 100 µM (inactive)');

Value of measured GI50 for the entry `CCc1nc2c([nH]1)C(=O)c1ccccc1C2=O` : 15.9 µM (inactive)

Value of measured GI50 for the entry `O=c1/c(=C/c2ccccc2[N+](=O)[O-])sc2nc3ccccc3n12` : 16 µM (inactive)

Value of measured GI50 for the entry CC1=C(C)CC2(CCCCC2=O)[S+]([O-])C1 (stereo not given) : > 100 µM (inactive)

Value of measured GI50 for the entry O=C(Nc1c(Cl)cc([N+](=O)[O-])cc1Cl)C(=O)C(C1OC(=O)c2ccccc21)[N+](=O)[O-] (stereo not given) : > 100 µM (inactive)

Value of measured GI50 for the entry C[n+]1c2ccccc2c(NC(CCC(N)=O)C(=O)O)c2ccccc21 (stereo not given) : > 100 µM (inactive)

Value of measured GI50 for the entry Cc1ccc(C(=O)CC2(O)C(=O)Nc3c(C)cc(Cl)cc32)cc1 (stereo not given) : > 100 µM (inactive)

Value of measured GI50 for the entry `COc1ccc2c(c1)[n+]([O-])c(-c1c(Cl)cccc1Cl)c(N)[n+]2[O-]` : 24.6 µM (inactive)

Value of measured GI50 for the entry `O=C1CCC(=O)C12CCc1ccccc12` : > 100 µM (inactive)

Value of measured GI50 for the entry `CC1(C)CC(=O)C(/C(=N/NC(=S)NN)C(=O)Nc2nc3ccc([N+](=O)[O-])cc3s2)C(=O)C1` : > 100 µM (inactive)

Value of measured GI50 for the entry `Clc1cc(Cl)c2c(Cl)cc(Cl)c3c2c1N=S=N3` : 12.9 µM (inactive)

---

Entries and their measured GI50 follow.
System: Malme-3M
Test: NCI tumour cell line growth inhibition, 48 h
Activity calls are given as the source filed them. No stated cut-off is given here; in the data, active = GI50 up to about 1.1 µM and inactive = higher.

The cases that follow already have their GI50 on record.
INSERT INTO measurements (compound, result) VALUES
  ('CN(C)CCCNC(=O)c1cn2c(ccc3sc4ccccc4c(=O)c32)n1', '8.99 µM (inactive)'),
  ('CC1(C)CC(=O)C(/C(=N/NC(=S)NN)C(=O)Nc2nc3ccc([N+](=O)[O-])cc3s2)C(=O)C1', '> 100 µM (inactive)'),
  ('Clc1ccc(-c2nnc3c4nnc(-c5ccc(Cl)cc5Cl)n4c4ccccc4n23)c(Cl)c1', '> 100 µM (inactive)'),
  ('O=C1CCCc2cc3c(cc21)CC1(Cc2ccccc2C1)C3', '9.79 µM (inactive)'),
  ('N/C(=N\c1cccc(Cl)c1)c1ccccc1N', '> 100 µM (inactive)'),
  ('Nc1c2ccccc2nc2nccnc12', '> 100 µM (inactive)'),
  ('CN(/N=C/c1ccc(OCc2cccc(COc3ccc(C=O)cc3)n2)cc1)c1cnn(-c2ccc(Cl)cc2Cl)c(=O)c1Cl', '84.1 µM (inactive)'),
  ('Clc1cc(Cl)c2c(Cl)cc(Cl)c3c2c1N=S=N3', '> 100 µM (inactive)'),
  ('O/N=C1\CCCCC1C(NO)c1ccccc1 (stereo not given)', '> 100 µM (inactive)'),
  ('COc1cc2nc(-c3cccs3)nc(Nc3ccccc3C(=O)NN)c2cc1OC', '> 100 µM (inactive)');

Entry `CCOC(=O)C(Cc1c(C=O)[nH]c2ccccc12)(NC(=O)c1ccccc1)C(=O)OCC` , Malme-3M data, GI50 value: 17.7 µM (inactive)

Entry `COC(=O)c1nc2c3c(cccc3c1C(=O)OC)Nc1ccccc1-2` , Malme-3M data, GI50 value: 29.2 µM (inactive)

Entry `O=C(NCCCCCCNCc1cccc2ccccc12)Nc1cccc2ccccc12` , Malme-3M data, GI50 value: > 100 µM (inactive)

Entry `COC(=O)[C@]1(C)CCC[C@]2(C)[C@@H](CCC(=O)C(C)C)[C@]3(C=O)O[C@@H]3C[C@H]21` , Malme-3M data, GI50 value: 53.1 µM (inactive)

Entry CC(=O)NCCC1CN(C(=O)/C=C\C#C[Si](C)(C)C)c2ccccc21 (stereo not given) , Malme-3M data, GI50 value: 13.1 µM (inactive)
